Data origin, for the record: ChEMBL document CHEMBL3124770

Here the recorded pIC50 is given for each entry.
Test system: MCF7
Assay: Cytotoxicity against estrogen receptor-positive human MCF7 cells assessed as cell viability after 72 hrs by MTT assay
Format: functional, cell-based
Settings: MCF7, 72 h
# log scale: pIC50 equals minus log10 of the concentration in mol/L

>  <MOLECULE>
O=C(/C=C/C[C@@H]1CC=CC(=O)O1)CCc1ccco1

>  <pIC50>
5.36

$$$$
>  <MOLECULE>
O=C(/C=C/C[C@H]1CC=CC(=O)O1)CCc1ccc2c(c1)OCO2

>  <pIC50>
5.48

$$$$
>  <MOLECULE>
CCCCCCCCCCCCCCCC(=O)/C=C/C[C@H]1CC=CC(=O)O1

>  <pIC50>
5.42

$$$$
>  <MOLECULE>
O=C(/C=C/C[C@@H]1CC=CC(=O)O1)CCc1ccc2c(c1)OCO2

>  <pIC50>
5.18

$$$$
>  <MOLECULE>
CCCCCCCCCCCCCCCCCCCC(=O)/C=C/C[C@@H]1CC=CC(=O)O1

>  <pIC50>
5.25

$$$$

Exercise: Supply measured pIC50 of O=C(/C=C/C[C@@H]1CC=CC(=O)O1)CCc1ccc2ccccc2c1 in your reply.
Key: 5.33

Exercise: Supply measured pIC50 of O=C(/C=C/C[C@H]1CC=CC(=O)O1)CCc1cccc(Oc2ccccc2)c1 in your reply.
Key: 5.47

Exercise: Supply measured pIC50 of O=C(/C=C/C[C@H]1CC=CC(=O)O1)CCc1c[nH]c2ccccc12 in your reply.
Key: 5.41

Exercise: Supply measured pIC50 of O=C(/C=C/C[C@@H]1CC=CC(=O)O1)CCc1c[nH]c2ccccc12 in your reply.
Key: 5.24

Exercise: Supply measured pIC50 of CCCCCCCCCCCC(=O)/C=C/C[C@@H]1CC=CC(=O)O1 in your reply.
Key: 5.34

Exercise: Supply measured pIC50 of CC(=O)/C=C/C[C@@H]1CC=CC(=O)O1 in your reply.
Key: 5.47

Exercise: Supply measured pIC50 of CCCCCCCCCCCCCCCCC/C=C/C(=O)/C=C/C[C@@H]1CC=CC(=O)O1 in your reply.
Key: 5.42

---

System: MDA-MB-231
Test: Cell cycle arrest in estrogen receptor-negative human MDA-MB-231 cells assessed as accumulation at G1 phase at 2 uM after 24 hrs by Propidium iodide staining-based flow cytometric analysis (reference value: 54.66 +/- 2.51%)
Type: functional
Here the recorded Activity is given for each entry.
Numbers only; they are read as %.

Sample records with Activity:
>  <STRUCTURE_SMILES_STRING>
CCCCCCCC/C=C\CCCCCCCC(=O)/C=C/C[C@H]1CC=CC(=O)O1

>  <MEASUREMENT_TARGET>
MDA-MB-231

>  <Activity, %>
70.6

$$$$
>  <STRUCTURE_SMILES_STRING>
CCCCCCCCCCCCCCCCCC(=O)/C=C/C[C@@H]1CC=CC(=O)O1

>  <MEASUREMENT_TARGET>
MDA-MB-231

>  <Activity, %>
74

$$$$

Exercise: Supply measured Activity of CC(=O)/C=C/C[C@@H]1CC=CC(=O)O1 in your reply.
Key: 68

Exercise: Supply measured Activity of O=C(/C=C/C[C@@H]1CC=CC(=O)O1)CCc1ccccc1 in your reply.
Key: 70

Exercise: Supply measured Activity of CCCCCCCCCCCCCCCCC/C=C/C(=O)/C=C/C[C@H]1CC=CC(=O)O1 in your reply.
Key: 72.6
